What EC50 was measured for each of the following?
target: EP4 Receptor (Oryctolagus cuniculus, UniProt Q28691); experiment: Magnus experiment using rabbit saphenous vein (relaxation of 40 mM KCl contraction); type: cell-based; conditions: relaxation of contraction by 40 mM KCl, thromboxane antagonist S-145 (1000 nM) present; read-out: EC50 (nM), agonistic activity to EP4 receptor in rabbit saphenous vein relaxation reaction
Sequence (Q28691 whole entry): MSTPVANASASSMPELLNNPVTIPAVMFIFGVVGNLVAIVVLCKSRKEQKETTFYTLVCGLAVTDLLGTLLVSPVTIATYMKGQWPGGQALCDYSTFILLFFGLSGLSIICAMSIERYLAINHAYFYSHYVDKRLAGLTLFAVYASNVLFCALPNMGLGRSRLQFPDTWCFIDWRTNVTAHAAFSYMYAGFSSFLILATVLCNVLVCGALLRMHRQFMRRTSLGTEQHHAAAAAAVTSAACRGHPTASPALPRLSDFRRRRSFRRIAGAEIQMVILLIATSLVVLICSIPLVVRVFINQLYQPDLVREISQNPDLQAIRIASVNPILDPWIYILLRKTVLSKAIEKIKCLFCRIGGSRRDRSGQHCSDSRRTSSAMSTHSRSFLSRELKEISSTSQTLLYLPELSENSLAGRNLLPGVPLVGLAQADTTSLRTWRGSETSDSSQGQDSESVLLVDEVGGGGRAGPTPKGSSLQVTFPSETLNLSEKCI
Your answer is read as nM, so omit the unit and give the number.

**Q:** Quickly give me recorded EC50 for O=C(O)CSc1cccc2c1OC1CC(O)C(C=CC(O)CC3CCCCC3)C21 (stereo not drawn) [Compound 6]
**A:** 33

**Q:** Quickly give me recorded EC50 for OC(C=CC1C(O)CC2Oc3c(CCc4nnn[nH]4)cccc3C21)CC1CCCCC1 (stereo not drawn) [Compound 2]
**A:** 3

**Q:** Quickly give me recorded EC50 for CC(C)(C(O)C=CC1C(O)CC2Oc3c(OCC(=O)O)cccc3C21)C1CCCCC1 (stereo not drawn) [Compound 5]
**A:** 26

All figures here come from patent US20030083381A1.
